Provenance of the data: paper PMC5540273

# System: EPHA8
# condition description: concentration: 1 μM, replicates: in singlicate; n = 1;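 also: KINOMEscan kinase panel screen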
Quick rule: %Inh of at least 4% means MET, below that means NOT MET.

Form field: %Inh at least 4%? Entry: "Cc1cccc(-c2cc(-c3c[nH]nc3-c3ccccn3)ccn2)c1"
MET

---
# check: %Inh of "CN(C)c1cc(-c2ccc3c(N)n[nH]c3c2)nc(N)n1" is greater than or equal to 4%
NOT MET

Assess whether reported %Inh for "OCCCNc1nccc(-c2c(-c3cccc(C(F)(F)F)c3)nn3cc(C(F)(F)F)ccc23)n1" sits at 4% or higher.
NOT MET

Given "COc1cc2nccc(Nc3cccc(Oc4ccccc4)c3)c2cc1OC.Cl" , state whether its %Inh is at least 4%.
MET

----------
# Tested on: HUNK
# condition description: concentration: 1 μM, replicates: in singlicate; n = 1
%Inh vs 9%: less than gives 1 (yes); not less than gives 0 (no).

Report whether reported %Inh is lower than 9% (strictly) for "Nc1n[nH]c2nnc(-c3ccccc3)c(-c3ccccc3)c12"
1 (yes)

State whether 9% exceeds %Inh recorded for COc1ccc(CNC(=O)NC2CCN(c3ccnc(Nc4ccc(F)cc4)n3)C2)cc1 (stereo not drawn) .
1 (yes)

Is 9% strictly greater than the compound's reported %Inh? compound: "COc1cccc(C2=C(Nc3cccc(C(=O)O)c3)C(=O)NC2=O)c1"
0 (no)

Hello, is %Inh of the following compound strictly smaller than 9%? "Nc1ncnc2c1ncn2-c1cccc(F)c1"
0 (no)

Does "O=C1NC(=O)C(c2ccccc2)=C1Nc1cccc(O)c1" have %Inh strictly under 9%?
0 (no)

Lab note: confirm whether the reported %Inh for this compound is below 9%, equality not counting. compound: "Cl.c1ccc(Cn2cnc3cc(Nc4ncnc5ccccc45)ccc32)cc1"
1 (yes)

Does the reported %Inh of the following compound sit strictly below 9%? "CCn1c(-c2ccoc2)nc2cnccc21"
1 (yes)

----------
# Tested on: TEC
# condition description: concentration: 1 μM, replicates: in singlicate; n = 1
measurement type: %Inh
Your answer should be a number followed by the unit of measure.

Below, 2 compounds whose answers are already recorded.
Supply recorded %Inh for COc1cc2nccc(Nc3ccc(OCc4ccc(NC(C)=O)cc4)cc3)c2cc1OC.Cl [GW440135] here.
0%

In one line, give reported %Inh of the entry COc1cc(Nc2ccnc3ccc(C(F)(F)F)cc23)cc(OC)c1OC [GW577382] .
0%

Continuing:
Consider the compound "COC(=O)c1c(-c2ccccc2)c2cc(Br)ccc2c(=O)n1Cc1ccc(NC(=O)CCC(=O)O)cc1" and give its recorded %Inh.
10%

----------
Documented %Inh across a set of compounds
# Test system: ABL2
# condition description: concentration: 1 μM, replicates: in singlicate; n = 1
Quick note: give the figure in %, leave out the unit.

Check the records and state %Inh for "Cc1nn2c(=O)cc(N3CCOCC3)nc2n1Cc1cccc(Cl)c1Cl"
9

Below: the item to evaluate.
Look up and state reported %Inh for "COc1ccc(-c2cc3c(C)nc(N)nc3n([C@H]3CC[C@H](O)CC3)c2=O)cn1"
0

----------
# Test system: MAK
# condition description: concentration: 1 μM, replicates: in singlicate; n = 1
The label condition met is reserved for %Inh strictly under 2%; condition not met covers values equal to or above it.

Observe how each entry below is paired with its result.
# TODO verify %Inh < 2% strictly for this compound: COc1cc(Nc2nccc(N3CCC(NC(=O)C4COc5ccccc5O4)C3)n2)cc(OC)c1OC (stereo not drawn)
condition not met

# strict comparison: is reported %Inh < 2%? input = "O=C(Nc1n[nH]c2cc(-c3ccccc3F)ccc12)C1CC1"
condition met

For "CN1C(=O)C(Nc2ccccc2)=C(c2ccccc2)C1=O" , is the recorded %Inh below the cut-off of 2%?
condition met

Hello, I'm reviewing records and need to know if %Inh of "CCC(=O)c1c(-c2ccccc2)c2cc(Cl)ccc2c(=O)n1Cc1cc(S(C)(=O)=O)n(CC(F)F)n1" is below 2%. Could you check?
condition not met

In the record for "OCCCNc1nccc(-c2c(-c3cccc(C(F)(F)F)c3)nn3cc(C(F)(F)F)ccc23)n1" , is %Inh less than 2%?
condition not met

For this compound, is %Inh lower than 2%? "COc1cc2nccc(Nc3ccc(OCc4ccc(NC(C)=O)cc4)cc3)c2cc1OC.Cl"
condition met

Turning now to a further record.
Report whether reported %Inh is lower than 2% (strictly) for "Cc1nnc(-c2ccc(C)c(-c3ccc(C(=O)O)cc3)c2)o1"
condition not met

----------
# Test system: PDGFRA
# condition description: concentration: 1 μM, replicates: in singlicate; n = 1
Each record here notes measured %Inh.
Express the result in % but write the number alone.

// worked examples, %Inh included
Respond only with %Inh recorded for COc1cc(Nc2nccc(N3CCC(NC(=O)C4COc5ccccc5O4)C3)n2)cc(OC)c1OC (centres unmarked)
1

Identify measured %Inh associated with "Nc1ncnc2c1ncn2-c1ccc(Cl)cc1"
38

Identify %Inh associated with the molecule "CN1C(=O)C(Nc2cc(Cl)c(O)c(Cl)c2)=C(c2ccc(Cl)cc2)C1=O"
0

Input "COc1ccc(-c2cc3c(C)nc(N)nc3n([C@H]3CC[C@H](OCCO)CC3)c2=O)cn1" , output reported %Inh.
0

Next:
Give a short answer stating reported %Inh for CCS(=O)c1ccc(-c2coc3ccc(-c4nnc(C)o4)cc23)cc1 (centres unmarked) .
0

----------
# Test system: PIM1
# condition description: concentration: 1 μM, replicates: in singlicate; n = 1
Catalogue of %Inh readings, one per entry.
Express your answer in %, writing the number without its unit.

Below: 6 compounds and their reported %Inh.
Report the value of %Inh obtained on PIM1 for "O=c1cc(N2CCOCC2)nc2n(Cc3ccc(F)c(Cl)c3)ccn12" .
11

Output reported %Inh of the compound "CCC(=O)c1c(-c2ccccc2)c2cc(Cl)ccc2c(=O)n1Cc1cc(S(C)(=O)=O)n(CC(F)F)n1" on PIM1.
0

Report measured %Inh on PIM1; entry: "COc1cccc(-n2cnc3c(N)ncnc32)c1"
20

Lab note: PIM1 assay, enter %Inh for "Cl.c1ccc(Cn2cnc3cc(Nc4ncnc5ccccc45)ccc32)cc1" here
0

Please indicate recorded %Inh of COc1cc(Nc2nccc(N3CCC(NC(=O)C4COc5ccccc5O4)C3)n2)cc(OC)c1OC (centres unmarked) measured with PIM1.
0

Give %Inh; test system PIM1; compound "CCn1c(-c2nonc2N)nc2ccccc21"
0

Lab note: next compound to report on.
Please report %Inh with PIM1 for item "COC(=O)c1c(-c2ccccc2)c2cc(Br)ccc2c(=O)n1Cc1ccc(S(C)(=O)=O)cc1" .
9

----------
# System: DCAMKL2
# Construct: gene DCLK2
# condition description: concentration: 1 μM, replicates: in singlicate; n = 1
Reported %Inh values for the following compounds.
Kindly provide the numeric value in % only, without the unit symbol.

Read off the recorded %Inh for COc1cc(Nc2nccc(N3CCC(NC(=O)C(C)c4ccc(Cl)cc4)C3)n2)cc(OC)c1OC (stereo not shown)
0

Kindly indicate its recorded %Inh. Item: "COc1cc2nccc(Nc3ccc(OCc4ccc(NC(C)=O)cc4)cc3)c2cc1OC.Cl"
0

Return %Inh (reported value) for this compound: "CCCNC(=O)Nc1ccc(Oc2ncnc3ccn(C)c23)cc1"
0

Look up %Inh of "CCn1c(-c2nonc2N)nc2ccccc21" and report it.
0

Supply %Inh value. Item: "Cc1cccc(-c2nc(Nc3ccc4c(cnn4C)c3)c3ccccc3n2)n1"
11

// next entry
Please indicate %Inh recorded for "Nc1nc(N)c2nc(-c3ccccc3)[nH]c2n1"
0

----------
This section presents molecules with their documented %Inh values.
# Tested on: KIT
# condition description: concentration: 1 μM, replicates: in singlicate; n = 1

Note %Inh for the molecule shown: Cc1c(Cn2c(C)nn3c(=O)cc(N4CCO[C@H](C)C4)nc23)cccc1C(F)(F)F [GSK2373690]
13%

---
Assign %Inh to the following record: COc1cccc(C2=C(Nc3cccc(C(=O)O)c3)C(=O)NC2=O)c1 [SB-390770]
0%

State its %Inh for this molecule: "CCC(=O)c1c(-c2ccccc2)c2cc(Cl)ccc2c(=O)n1Cc1cc(S(C)(=O)=O)n(CC(N)=O)n1"
6%

Kindly indicate its recorded %Inh. Item: COc1cc2nccc(Nc3cccc(Oc4ccccc4)c3)c2cc1OC.Cl [GW284543]
15%

State its %Inh: Nc1nccc2scc(-c3ccc4c(c3)CCN4C(=O)Cc3ccccc3)c12 [GSK2576924]
74%

Report measured %Inh; entry is CCn1c(-c2nonc2N)nc2ccccc21 [SB-693162/GW549034]
0%

Name the recorded %Inh of the molecule listed here: "CCC(=O)c1c(-c2ccccc2)c2cc(Cl)ccc2c(=O)n1Cc1cc(S(C)(=O)=O)n(CCC(C)(C)O)n1"
11%

Assign %Inh to the following record: COc1ccc(CNC(=O)NC2CCN(c3ccnc(Nc4ccc(F)cc4)n3)C2)cc1 (centres unmarked) [GSK1379706]
39%
